# System: Mice
# procedure.details: Hot-plate test
# Format: in vivo
# assay.setup: Mus musculus, 1 h, oral, 60 min after administration, 55.5°C, read-out: Hot-plate M.E.D. (minimum effective dose)
compounds and their reported minimal effective dose

- query.smiles: "COc1ccc(CCc2ccccc2C(=O)Nc2ccc3nc(C)cc(N)c3c2)cc1.Cl"
  minimal effective dose: "> 10 mg/kg"
- query.smiles: "Cc1cccc(OCc2ccccc2C(=O)Nc2ccc3nc(C)cc(N)c3c2)c1"
  minimal effective dose: "< 3 mg/kg"
- query.smiles: "Cc1cc(N)c2cc(NC(=O)c3ccccc3COc3ccccc3)ccc2n1.Cl"
  minimal effective dose: "30 mg/kg"
- query.smiles: "COc1ccc(OCc2ccccc2C(=O)Nc2ccc3nc(C)cc(N)c3c2)cc1.Cl"
  minimal effective dose: "< 3 mg/kg"
- query.smiles: "Cc1cc(N)c2cc(NC(=O)c3ccccc3COc3ccc(C(C)(C)C)cc3)ccc2n1.Cl"
  minimal effective dose: "3 mg/kg"
- query.smiles: "Cc1cc(N)c2cc(NC(=O)c3ccccc3COc3ccc(Cl)c(C)c3)ccc2n1.Cl"
  minimal effective dose: "1 mg/kg"

* * *

Entries and their minimal effective dose
# Test system: allodynia model
# procedure.details: Allodynia test (intrathecal nociceptin, tactile stimulation)
# Assay type: in vivo, Mice
# assay.setup: Mus musculus; mice, oral, 60 min before nociceptin 50 pg i.t.; score at 20 min; read-out: Allodynia M.E.D. (minimum effective dose)

- query.smiles: "Cc1cc(N)c2cc(NC(=O)c3ccccc3CCCCCCCOc3ccccc3)ccc2n1.Cl"
  value.comparator: ">"
  minimal effective dose (mg/kg): 3
- query.smiles: "Cc1cc(N)c2cc(NC(=O)c3ccccc3COc3ccc(C(C)(C)C)cc3)ccc2n1.Cl"
  value.comparator: ">"
  minimal effective dose (mg/kg): 0.3
- query.smiles: "Cc1cc(N)c2cc(NC(=O)c3ccccc3CCCOc3ccccc3)ccc2n1.Cl"
  value.comparator: "="
  minimal effective dose (mg/kg): 3
- query.smiles: "CCc1ccc(OCc2ccccc2C(=O)Nc2ccc3nc(C)cc(N)c3c2)cc1.Cl"
  value.comparator: "="
  minimal effective dose (mg/kg): 0.3
- query.smiles: "Cc1cc(N)c2cc(NC(=O)c3ccccc3CCCCOc3ccccc3)ccc2n1.Cl"
  value.comparator: ">"
  minimal effective dose (mg/kg): 3
- query.smiles: "Cc1cc(N)c2cc(NC(=O)c3ccccc3COc3ccc(I)cc3)ccc2n1"
  value.comparator: ">"
  minimal effective dose (mg/kg): 0.3
- query.smiles: "COc1cc(OC)cc(OCc2ccccc2C(=O)Nc2ccc3nc(C)cc(N)c3c2)c1.Cl"
  value.comparator: "="
  minimal effective dose (mg/kg): 3
- query.smiles: "Cc1cc(N)c2cc(NC(=O)c3ccccc3CCOc3ccccc3)ccc2n1.Cl"
  value.comparator: ">"
  minimal effective dose (mg/kg): 3
- query.smiles: "Cc1cc(N)c2cc(NC(=O)c3ccccc3COc3ccc(C#N)cc3)ccc2n1.Cl"
  value.comparator: "="
  minimal effective dose (mg/kg): 0.1
- query.smiles: "CCc1cc(N)c2cc(NC(=O)c3ccccc3COc3ccc(Cl)cc3)ccc2n1.Cl"
  value.comparator: "="
  minimal effective dose (mg/kg): 0.3
- query.smiles: "Cc1cc(N)c2cc(NC(=O)c3ccccc3COc3ccc(F)cc3)ccc2n1.Cl"
  value.comparator: ">"
  minimal effective dose (mg/kg): 0.3
- query.smiles: "COc1cccc(OCc2ccccc2C(=O)Nc2ccc3nc(C)cc(N)c3c2)c1OC.Cl"
  value.comparator: "="
  minimal effective dose (mg/kg): 3
- query.smiles: "Cc1cc(N)c2cc(NC(=O)c3ccccc3COc3ccc(Cl)c(Cl)c3)ccc2n1.Cl"
  value.comparator: "="
  minimal effective dose (mg/kg): 0.3
- query.smiles: "Cc1cc(N)c2cc(NC(=O)c3ccccc3COc3ccc(Cl)cc3)ccc2n1.Cl"
  value.comparator: "="
  minimal effective dose (mg/kg): 0.3
- query.smiles: "Cc1cc(N)c2cc(NC(=O)c3ccccc3COc3ccccc3)ccc2n1.Cl"
  value.comparator: "="
  minimal effective dose (mg/kg): 3
- query.smiles: "Cc1cc(N)c2cc(NC(=O)c3ccccc3CCCCCCOc3ccccc3)ccc2n1.Cl"
  value.comparator: ">"
  minimal effective dose (mg/kg): 3
- query.smiles: "Cc1cc(N)c2cc(NC(=O)c3ccccc3CCCCCOc3ccccc3)ccc2n1.Cl"
  value.comparator: ">"
  minimal effective dose (mg/kg): 3
- query.smiles: "Cc1cc(N)c2cc(NC(=O)c3ccccc3COc3ccc(Br)cc3)ccc2n1.Cl"
  value.comparator: "="
  minimal effective dose (mg/kg): 0.3
- query.smiles: "CC(=O)c1ccc(OCc2ccccc2C(=O)Nc2ccc3nc(C)cc(N)c3c2)cc1.Cl"
  value.comparator: "="
  minimal effective dose (mg/kg): 0.3
- query.smiles: "Cc1cc(N)c2cc(NC(=O)c3ccccc3COc3ccc4c(c3)CCO4)ccc2n1.Cl"
  value.comparator: ">"
  minimal effective dose (mg/kg): 0.3
- query.smiles: "CCc1ccc(OCc2ccccc2C(=O)Nc2ccc3nc(C)cc(N)c3c2)c(Cl)c1.Cl"
  value.comparator: "="
  minimal effective dose (mg/kg): 0.3
- query.smiles: "Cc1cc(N)c2cc(NC(=O)c3ccccc3COc3cccc([N+](=O)[O-])c3)ccc2n1.Cl"
  value.comparator: "="
  minimal effective dose (mg/kg): 0.1
- query.smiles: "Cc1cccc(OCc2ccccc2C(=O)Nc2ccc3nc(C)cc(N)c3c2)c1"
  value.comparator: "="
  minimal effective dose (mg/kg): 1
- query.smiles: "COc1ccc(CCc2ccccc2C(=O)Nc2ccc3nc(C)cc(N)c3c2)cc1.Cl"
  value.comparator: "<"
  minimal effective dose (mg/kg): 3
- query.smiles: "Cc1cc(N)c2cc(NC(=O)c3ccccc3COc3ccc(Cl)c(C)c3)ccc2n1.Cl"
  value.comparator: "="
  minimal effective dose (mg/kg): 0.3
